Several reports have described IC50 for CK1δ (Homo sapiens (Human)); a selection of those results is presented here.
Give bare numbers, in nM.

Below: 6 compounds and their reported IC50.
Smiles Str | IC50 (nM)
Nc1ncnc2c1c(-c1ccco1)cn2[C@@H]1S[C@H](CO)[C@@H](O)[C@H]1O | 123
Nc1ncnc2nccc(O)c12 | 13900
Nc1ncnc2c1c(C#CC1CC1)cn2[C@@H]1S[C@H](CO)[C@@H](O)[C@H]1O | 1780
Nc1ncnc2c1c(-c1ccccc1)cn2[C@@H]1S[C@H](CO)[C@@H](O)[C@H]1O | 27
Nc1ncnc2c1c(-c1cccs1)cn2[C@@H]1S[C@H](CO)[C@@H](O)[C@H]1O | 18
COc1ccc2nc(NC(=O)Cc3ccc(OCc4cn(CCc5ccc(C(=O)Nc6nc7ccccc7s6)cc5)nn4)cc3)sc2c1 | 12600

// input: 5 compounds below; output: IC50 for each
1. CCOC(=O)c1sc(NC(=O)Cc2ccc(OCc3cn(Cc4ccc(CC(=O)Nc5nc6ccccc6s5)cc4)nn3)cc2)nc1C
2. O=C(Cc1ccc(OCc2cn(Cc3ccc(C(=O)Nc4nc5ccccc5s4)cc3)nn2)cc1)Nc1nc2ccc(C(F)(F)F)cc2s1
3. CCn1sc(=O)n(Cc2cn(Cc3ccc(CC(=O)Nc4nc5ccccc5s4)cc3)nn2)c1=O
4. Nc1nsc(Nc2ccccc2)n1
5. Nc1n[nH]c2cc(Cl)ccc12

OUTPUT:
[5400, 400, 1250, 18100, 20500]
